These data points were gathered from paper PMC4805166.

# System: Pseudomonas syringae pv. syringae EPS94
# Assay type: cell-based
# reported.conditions: 48 h
Where a SMILES comes first, the peptide text is derived from it. [ ]: non-standard residue; d: D form. The star is where a group is joined. Hexanoyl = CCCCCC(=O)*
Consider the following compounds; for each one, report its MIC Pss.

Reported MIC Pss, compound CCCCCC(=O)NCCCC[C@@H]1NC(=O)[C@H](CCCCN)NC(=O)[C@H](CC(C)C)NC(=O)[C@H](CCCCN)NC(=O)[C@H](CCCCN)NC(=O)[C@H](CCC(N)=O)NC(=O)[C@H](CC(C)C)NC(=O)[C@H](CCCCN)NC(=O)[C@H](CCCCN)NC(=O)[C@H](Cc2c[nH]cn2)NC1=O [BPC636, c(KKLKK(CO-nC5H11)HKKLQ)] (cyclo(HKKLQKKLKK(Hexanoyl))) : ____
6.2 to 12.5 µM

What do we get for CCCCCC(=O)NCCCC[C@H]1NC(=O)[C@H](CCCCN)NC(=O)[C@H](CCC(N)=O)NC(=O)[C@H](CC(C)C)NC(=O)[C@H](CCCCN)NC(=O)[C@H](CCCCN)NC(=O)[C@H](Cc2ccccc2)NC(=O)[C@H](CCCCN)NC(=O)[C@H](CCCCN)NC(=O)[C@H](CC(C)C)NC1=O [BPC678] (cyclo(FKKLQK[dK](Hexanoyl)LKK)) ?
12.5 to 25 µM

* * *

# System: erythrocyte suspensions of horse blood;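 note: Read-out is hemoglobin release into the supernatant, with a buffer-only blank subtracted as the 0% baseline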
# reported.conditions: 150 µM peptide; horse erythrocytes 5% vol/vol, TRIS buffer pH 7.2, 1 h at 37°C, absorbance 540 nm; relative to melittin 100 μM; ± confidence interval (α = 0.05)
Where a SMILES comes first, the peptide text is derived from it. [ ]: non-standard residue; d: D form. The star is where a group is joined. Octanoyl = CCCCCCCC(=O)*; Hexanoyl = CCCCCC(=O)*; Butyryl = CCCC(=O)*
result.type: Hemolysis (%) 150 µM
Answer with a number only, understood to be in %.

Return reported Hemolysis (%) 150 µM; argument: CCCC(=O)NCCCC[C@@H]1NC(=O)[C@H](CCCCN)NC(=O)[C@H](CC(C)C)NC(=O)[C@H](CCCCN)NC(=O)[C@H](CCCCN)NC(=O)[C@H](CCC(N)=O)NC(=O)[C@H](CC(C)C)NC(=O)[C@H](CCCCN)NC(=O)[C@H](CCCCN)NC(=O)[C@@H](Cc2ccccc2)NC1=O [BPC712, c(KKLKK(CO-C3H7)fKKLQ)] (cyclo(KKLKK(Butyryl)[dF]KKLQ))
30

Now give it for CCCCCCCC(=O)NCCCC[C@@H]1NC(=O)[C@H](CCCCN)NC(=O)[C@H](CC(C)C)NC(=O)[C@H](CCCCN)NC(=O)[C@H](CCCCN)NC(=O)[C@H](CCC(N)=O)NC(=O)[C@H](CC(C)C)NC(=O)[C@H](CCCCN)NC(=O)[C@H](CCCCN)NC(=O)[C@@H](Cc2ccccc2)NC1=O [BPC668, c(KKLKK(CO-C7H15)fKKLQ)] (cyclo(KKLKK(Octanoyl)[dF]KKLQ)) too.
79

Continue with CCCCCC(=O)NCCCC[C@@H]1NC(=O)[C@H](CCCCN)NC(=O)[C@H](CC(C)C)NC(=O)[C@H](CCCCN)NC(=O)[C@H](CCCCN)NC(=O)[C@H](CCC(N)=O)NC(=O)[C@H](CC(C)C)NC(=O)[C@H](CCCCN)NC(=O)[C@H](CCCCN)NC(=O)[C@H](Cc2ccccc2)NC1=O [BPC528, c(KKLKK(CO-nC5H11)FKKLQ)] (cyclo(FKKLQKKLKK(Hexanoyl)))
98
